Hello, the source for this data is patent US10669235B2, in case you need it.

method notes: Pharmacokinetic measurements in rats (i.v., i.t., oral)
Assay type: in vivo
study conditions: rat, i.v. dose 0.1 (nintedanib 0.42), 0.1 h

chemical string	BAL % administered dose at time 0.1 h
COC(=O)c1cc2c(cc1C)/C(=C(/Nc1ccc(C(=O)NCCN3CCCN(C)CC3)cc1)c1ccccc1)C(=O)N2	BQL
COC(=O)c1cc2c(cc1C)/C(=C(/Nc1ccc(C(=O)NCCN3CCC(N(C)C)CC3)cc1)c1ccccc1)C(=O)N2	BQL
COC(=O)c1cc2c(cc1C)/C(=C(/Nc1ccc(C(=O)NCCN3CCNC(=O)C3)cc1)c1ccccc1)C(=O)N2	BQL
